Measured values drawn from PubChem BioAssay AID1063 for this set.

assay_notes: Leishmania major promastigote growth inhibition, primary screen (AID 1063);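 also: promastigotes grown with compound for 44 hours at 28 °C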
settings: Leishmania major promastigotes, resazurin fluorescence viability; at 10 µM; hits give high values
Hit rate of the full screen: of about 200,000 compounds, about 18,000 (9%) were called active. The full list was thinned out, with actives kept by preference.
This section presents molecules with their documented inhibition values.
Just the number please, in %, no unit attached.

Study these solved cases before continuing.
O=C(NCCCN1CCOCC1)c1cc2c(s1)CCC2 : 79
Cc1cc(C)nc(N/N=C/c2c(C)oc3ccccc23)n1 : 3.92

Query: Query (molecule): C(=N\Nc1ccc2ccccc2n1)/c1ccc2c(c1)OCO2 ; field requested: inhibition
Reply: 52.1

Query: Query (molecule): O=C(Nc1ccc2ccccc2c1)/C(=C/c1cccc(Br)c1)NC(=O)c1ccco1 ; field requested: inhibition
Reply: 76.3

Query: Query (molecule): O=C(NCCOc1ccccc1)c1ccccc1 ; field requested: inhibition
Reply: -1.77
